Data credit: ChEMBL document CHEMBL4371007

# Tested System: Adenosine receptor A3 (Homo sapiens, UniProt P0DMS8)
# Sequence (P0DMS8 whole entry): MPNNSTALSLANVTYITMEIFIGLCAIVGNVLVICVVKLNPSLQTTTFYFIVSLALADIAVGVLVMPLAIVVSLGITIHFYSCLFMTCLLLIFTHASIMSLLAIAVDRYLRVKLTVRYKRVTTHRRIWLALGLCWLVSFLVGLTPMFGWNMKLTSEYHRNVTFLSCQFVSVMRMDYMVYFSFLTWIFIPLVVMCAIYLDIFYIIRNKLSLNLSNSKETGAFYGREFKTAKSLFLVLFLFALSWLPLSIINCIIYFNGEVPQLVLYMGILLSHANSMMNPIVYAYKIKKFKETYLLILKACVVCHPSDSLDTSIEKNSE
# Test Name: Agonist activity at human adenosine A3 receptor expressed in FlpIn-CHO cells assessed as inhibition of forskolin-mediated cAMP accumulation preincubated for 10 mins followed by forskolin addition measured after 30 mins by alphascreen assay
# Format: functional, cell-based
Measured EC50 of individual entries

Smiles Record | EC50
CNC(=O)[C@@]12C[C@@H]1[C@@H](n1cnc3c(NCc4cccc(Cl)c4)nc(C#Cc4ccc(-c5ccccc5)cc4)nc31)[C@H](O)[C@@H]2O | 7.94 nM
CNC(=O)[C@@]12C[C@@H]1[C@@H](n1cnc3c(NCc4cccc(Cl)c4)nc(C#Cc4cc5cccc6ccc7cccc4c7c65)nc31)[C@H](O)[C@@H]2O | 316 nM
CNC(=O)[C@@]12C[C@@H]1[C@@H](n1cnc3c(NCc4cccc(Cl)c4)nc(C#Cc4ccc5ccc6cccc7ccc4c5c67)nc31)[C@H](O)[C@@H]2O | 200 nM
CNC(=O)[C@@]12C[C@@H]1[C@@H](n1cnc3c(NCc4cccc(Cl)c4)nc(C#Cc4ccccc4)nc31)[C@H](O)[C@@H]2O | 0.794 nM
